Values compiled from ChEMBL document CHEMBL1201862.

tested on: MDA-N; test: NCI tumour cell line growth inhibition, 48 h
The source made the active and inactive calls. No stated cut-off is given here; in the data, active = GI50 up to about 1.1 µM and inactive = higher.
GI50 overview

CC(=O)c1c2c(c3ccccc3c1O)O[C@@H]1OCC[C@H]21	> 100 µM (inactive)
CC(c1ccccc1)n1cncc1C(=O)NN1CCN(C)CC1 (stereo not given)	> 10 µM (inactive)
CCN1C(Cl)=NS(=O)(=O)c2ccccc21	29.1 µM (inactive)
O=C(O)/C(Cc1ccnc2ccccc12)=N\O	> 100 µM (inactive)
CC1(C)/C(=N\Nc2ccc([N+](=O)[O-])cc2[N+](=O)[O-])C2CCC1C2 (stereo not given)	> 100 µM (inactive)
COc1ccc(N2C(=O)[C@H]3[C@H]4CC(C(C)(C)C)CC[C@H]4c4c(n(C)c5ccccc45)[C@H]3C2=O)cc1 (stereo not given in full)	> 100 µM (inactive)

Read the next record carefully.
Lab book: GI50 of c1ccc2c3nnc(c2c1)SCCSCCCSCCS3 noted as > 100 µM (inactive)

* * *

tested on: K562; assay: NCI tumour cell line growth inhibition, 48 h
Active and inactive are the calls of the source. Rule as the data show it: active = GI50 up to about 1.1 µM and inactive = higher.
readout.kind: GI50

Below: 2 compounds and their reported GI50.
c1cnn(CN(Cn2cccn2)Cn2cccn2)c1	> 100 µM (inactive)
Cc1c(C#N)c(N)n(C2OC(CO)C(O)C(O)C2O)c(=S)c1C#N (stereo not drawn)	> 100 µM (inactive)

Read the next record carefully.
Lab book: GI50 of CCOC(=O)c1cc(-c2ccc(OC)c(OC)c2)c[nH]1 noted as > 10 µM (inactive)

* * *

system: SK-OV-3; assay: NCI tumour cell line growth inhibition, 48 h
Activity calls are given as the source filed them. Rule as the data show it: active = GI50 up to about 1.1 µM and inactive = higher.
GI50 overview

Below: 6 compounds and their reported GI50.
CCOC(=O)c1ccc(NC(=O)Oc2ccc3c(C)cc(=O)oc3c2)cc1	29.6 µM (inactive)
O=C1CC(c2cccc(Cl)c2)n2cccc21 (stereo not given)	> 100 µM (inactive)
Cc1cc(O)c(C(C)C)cc1/N=C/c1ccccc1O	15.2 µM (inactive)
CCOc1ccc2nc(NC(=O)C(=O)C3C(=O)C(CC4C(=O)c5ccccc5C4=O)C(=O)CC3(C)C)sc2c1 (stereo not given)	> 100 µM (inactive)
O=C(c1nc2ccc(Cl)cc2[nH]c1=O)C(O)c1ccco1 (stereo not given)	> 100 µM (inactive)
CCOc1c2c(cc3c1C(=O)c1c(OC)cccc1C3=O)C=C(OC)CC2	> 25 µM (inactive)

Lab book: GI50 of CCOC(=O)/C(C#N)=C/c1ccc(SCc2ccco2)c([N+](=O)[O-])c1 noted as > 100 µM (inactive)

Lab book: GI50 of CC(C)c1cccc(C(C)C)c1/N=C(/N)C#N noted as > 100 µM (inactive)

Lab book: GI50 of CCn1c2ccccc2c2cc(NC(=O)c3c(C)nc(O)nc3NCCNCCO)ccc21 noted as > 100 µM (inactive)

Lab book: GI50 of CC(C)(C)OC(=O)N(CCCCN(CCCNC(=O)C(F)(F)F)C(=O)OC(C)(C)C)CCCNC(=O)C(F)(F)F noted as > 100 µM (inactive)

* * *

system: MDA-MB-231; test: NCI tumour cell line growth inhibition, 48 h
Activity calls are given as the source filed them. Cut-off read from the data, not from the text of the source: active = GI50 up to about 1.1 µM and inactive = higher.
GI50 overview

OC(COc1ccc(Cl)cc1Cl)CN1CCCC1 (stereo not given)	> 100 µM (inactive)
COC(=O)c1ccccc1/N=C(/NC1CCCCCC1)NS(=O)(=O)c1ccc(C)cc1	76.9 µM (inactive)
O=[N+]([O-])c1cccc(-c2csc(N/N=C3\NC/C(=C/c4ccc5c(c4)OCO5)S3)n2)c1	35.1 µM (inactive)
O=c1c2sc3nc(NCCN4CCCCC4)ncc3c2ncn1-c1ccccc1	> 100 µM (inactive)

Lab book: GI50 of COc1cc(/C=C2\N=C(c3ccccc3)N(c3ccc(C(=O)c4ccccc4)cc3N3C(=O)/C(=C/c4cc(OC)c(OC)c(OC)c4)N=C3c3ccccc3)C2=O)cc(OC)c1OC noted as 16.9 µM (inactive)

Lab book: GI50 of CNc1ncnc2c1cnn2CCCCO noted as > 100 µM (inactive)

Lab book: GI50 of Cc1cc(O)c(C=O)c2c1C(=O)Oc1c(CO)c(O)c3c(c1O2)C(O)OC3=O (stereo not given) [SLAZINIC ACID] noted as > 100 µM (inactive)

Lab book: GI50 of COc1cc2ccc1OCc1cccc(n1)COc1ccc(cc1OC)/C=N\CCNCC/N=C\2 noted as 35.2 µM (inactive)

Lab book: GI50 of FC(F)(F)c1ccc(C2ON=C(c3ccccc3)N2C23CC4CC(CC(C4)C2)C3)cc1 (stereo not given) noted as > 10 µM (inactive)
